- Tested target: D328R Gαi1 subunit (rat, UniProt P10824 2-354, D328R)
- Sequence (P10824 2-354 D328R): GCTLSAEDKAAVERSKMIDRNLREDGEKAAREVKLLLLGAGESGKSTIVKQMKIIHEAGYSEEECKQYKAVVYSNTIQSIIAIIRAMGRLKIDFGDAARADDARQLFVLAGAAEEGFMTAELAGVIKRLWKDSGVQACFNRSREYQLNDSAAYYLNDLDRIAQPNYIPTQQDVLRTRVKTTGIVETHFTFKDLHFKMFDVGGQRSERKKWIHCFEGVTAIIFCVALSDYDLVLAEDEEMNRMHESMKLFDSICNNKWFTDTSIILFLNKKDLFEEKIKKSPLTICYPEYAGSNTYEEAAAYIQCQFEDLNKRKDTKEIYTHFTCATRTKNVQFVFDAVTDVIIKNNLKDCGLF
- Assay: SPR
Ends that are not written are not given here. * marks the point of attachment. Biotin = O=C1N[C@H]2[C@H](CS[C@H]2CCCCC(=O)*)N1
Recorded endpoint: Kd (nM)
Express it in nM; write the number only.

Reported Kd for Biotin-SRVTWYDFLMEDTKSR [peptide KB-752] : what is it?
1280
